molecular target: [125I]-ICYP specific binding site (SMBP, SM-11044 binding protein) in rat colon smooth muscle membranes (Rattus norvegicus); construct: Membranes from colon smooth muscles were prepared as essentially described by Ek et al., 1986; from tissue; test: [125I]-ICYP saturation and competition binding to rat colon membranes (Example 2); conditions: 1 nM [125I]-ICYP; 10 μM 5-HT, 10 μM phentolamine and 20 μM propranolol; read-out: Ki on [125I]-ICYP specific binding to rat colon membranes
Sequence (A0A8I6A822 27-587): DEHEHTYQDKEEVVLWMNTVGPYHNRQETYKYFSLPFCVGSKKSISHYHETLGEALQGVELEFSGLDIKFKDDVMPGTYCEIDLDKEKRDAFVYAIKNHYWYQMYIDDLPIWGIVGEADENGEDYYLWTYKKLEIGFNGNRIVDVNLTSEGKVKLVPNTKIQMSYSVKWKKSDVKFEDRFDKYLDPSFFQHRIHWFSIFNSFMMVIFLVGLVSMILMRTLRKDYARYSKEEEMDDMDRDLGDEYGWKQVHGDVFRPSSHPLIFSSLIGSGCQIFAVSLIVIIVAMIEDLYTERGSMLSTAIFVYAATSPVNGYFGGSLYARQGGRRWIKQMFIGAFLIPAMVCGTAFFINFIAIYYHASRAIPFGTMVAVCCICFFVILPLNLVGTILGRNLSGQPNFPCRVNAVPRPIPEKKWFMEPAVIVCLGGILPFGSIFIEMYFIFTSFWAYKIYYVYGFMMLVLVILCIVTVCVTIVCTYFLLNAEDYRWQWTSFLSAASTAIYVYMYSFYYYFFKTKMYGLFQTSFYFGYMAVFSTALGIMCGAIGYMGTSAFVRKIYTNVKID
Where a name gives a salt, the structure may show the parent alone.
experimental-readout: Ki

In [3]: df
Out[3]:
                                   compound  reported_value
0  O=C([C@@H](NCCCc1ccc(F)cc1)[C@H](O)c1ccc(O)c(O)c1)N1CCCC1 [SM-11044, hydrobromide]          1.8 µM
1  NCCc1c[nH]c2ccc(O)cc12 [5-HT, serotonine]       > 1000 µM
2  CC(C)NC[C@H](O)c1ccc(O)c(O)c1 (single isomer, unassigned) [(−)-isoproterenol, isoproterenol]       > 1000 µM
3  Cc1ccc(Cl)c(OCC(O)CNC(C)(C)C)c1 (racemic) [(±)-bupranolol, bupranolol]         11.3 µM
4  CC(C)NCC(O)COc1cccc2[nH]c3ccccc3c12 (racemic) [(±)-carazolol, carazolol]          8.1 µM

These measurements were taken from patent US7276576B1.
